measurement target: T1, BrxX (PglX) (Escherichia coli HS, UniProt P0DUF9 1-1205)
T1 sequence: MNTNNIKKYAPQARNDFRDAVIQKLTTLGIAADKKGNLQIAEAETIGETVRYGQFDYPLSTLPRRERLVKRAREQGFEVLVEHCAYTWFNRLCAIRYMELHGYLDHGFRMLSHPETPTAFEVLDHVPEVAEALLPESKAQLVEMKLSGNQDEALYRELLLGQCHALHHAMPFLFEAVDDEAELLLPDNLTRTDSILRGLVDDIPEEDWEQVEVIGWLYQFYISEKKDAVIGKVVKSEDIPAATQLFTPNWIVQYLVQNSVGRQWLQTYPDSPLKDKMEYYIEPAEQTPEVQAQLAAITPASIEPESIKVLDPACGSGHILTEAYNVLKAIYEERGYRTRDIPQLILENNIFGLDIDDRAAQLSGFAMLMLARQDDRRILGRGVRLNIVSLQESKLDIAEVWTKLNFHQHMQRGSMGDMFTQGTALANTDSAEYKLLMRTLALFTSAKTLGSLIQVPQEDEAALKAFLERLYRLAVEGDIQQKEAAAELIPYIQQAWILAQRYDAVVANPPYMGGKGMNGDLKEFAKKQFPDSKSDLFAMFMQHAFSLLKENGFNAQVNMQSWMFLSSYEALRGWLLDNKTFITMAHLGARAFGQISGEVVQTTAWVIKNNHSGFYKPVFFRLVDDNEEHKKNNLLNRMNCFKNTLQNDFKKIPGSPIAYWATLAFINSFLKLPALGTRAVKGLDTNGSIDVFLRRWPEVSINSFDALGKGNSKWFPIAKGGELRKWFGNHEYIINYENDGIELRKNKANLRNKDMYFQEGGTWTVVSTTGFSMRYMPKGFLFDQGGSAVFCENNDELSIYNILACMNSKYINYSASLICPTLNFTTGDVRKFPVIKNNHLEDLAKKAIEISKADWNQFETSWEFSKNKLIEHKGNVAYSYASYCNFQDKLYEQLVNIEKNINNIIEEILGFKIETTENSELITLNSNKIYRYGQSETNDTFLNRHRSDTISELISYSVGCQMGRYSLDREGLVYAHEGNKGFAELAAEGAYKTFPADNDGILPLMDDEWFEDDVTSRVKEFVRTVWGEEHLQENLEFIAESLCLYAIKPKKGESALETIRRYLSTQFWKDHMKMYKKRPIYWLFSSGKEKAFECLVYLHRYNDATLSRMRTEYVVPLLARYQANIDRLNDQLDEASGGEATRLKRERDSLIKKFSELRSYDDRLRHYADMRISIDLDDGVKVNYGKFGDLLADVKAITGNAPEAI
test: EMSA; 0.5 mM SAM; EMSA: 20 nM Cy5-DNA, 0.5x TBE pH 8.0, 35 mM NaCl, 5% glycerol, +/-0.5 mM SAM or SAH, 30 min, room temperature; BLI: 20 mM Tris-HCl pH 8.0, 100 mM NaCl, 0.05 mg/mL BSA, 0.02% Tween-20, +/-0.5 mM SAM, 30 C
condition: protein: recombinant; tags: N-His6; label: 5'-Cy5 on strand 1; blunt

[
  {
    "binder": "43 bp scrambled (dsDNA) DNA 1: AGTCAGTAGTGAGGTCAGGAATGAGTCAGTCTCACTGTCAGGA DNA 2: TCCTGACAGTGAGACTGACTCATTCCTGACCTCACTACTGACT",
    "Kd": "~300 nM"
  },
  {
    "binder": "43 bp, 1 BREX site (dsDNA) DNA 1: AGTCAGTGGTAAGGTCAGGAATGAGTCAGTTGGCAAGTCAGGA DNA 2: TCCTGACTTGCCAACTGACTCATTCCTGACCTTACCACTGACT",
    "Kd": "~60 nM"
  }
]
